measured target: Retinoic acid receptor RXR-gamma (Homo sapiens, UniProt P48443)
Sequence (P48443 whole entry): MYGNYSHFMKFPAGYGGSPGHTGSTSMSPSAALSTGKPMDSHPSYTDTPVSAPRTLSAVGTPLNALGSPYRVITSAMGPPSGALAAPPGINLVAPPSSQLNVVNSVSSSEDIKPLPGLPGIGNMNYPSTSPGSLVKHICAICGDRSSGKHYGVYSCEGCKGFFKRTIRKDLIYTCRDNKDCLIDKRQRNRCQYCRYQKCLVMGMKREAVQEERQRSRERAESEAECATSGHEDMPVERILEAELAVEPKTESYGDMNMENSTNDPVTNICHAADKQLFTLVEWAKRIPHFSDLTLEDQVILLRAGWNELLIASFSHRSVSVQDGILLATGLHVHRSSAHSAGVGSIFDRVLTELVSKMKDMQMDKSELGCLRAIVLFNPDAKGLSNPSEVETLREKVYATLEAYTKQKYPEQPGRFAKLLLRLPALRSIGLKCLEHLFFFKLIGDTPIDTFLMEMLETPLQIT
measurement protocol: Transactivation of RXRgamma in CV1 cells by cotransfection assay
Type: functional, cell-based, CV-1
measurement context: read-out: EC50
readout label: log10 EC50 (log10 of the value in nM)

| compound | log10 EC50 |
| --- | --- |
| CCCN(C/C=C/C(C)=C/C(=O)O)c1cc(C(C)(C)C)cc2c1CCC2(C)C | 1.28 |
| CCCN(C/C=C/C(C)=C/C(=O)O)c1cc(C(C)(C)C)cc(C(C)(C)C)c1 | 1.80 |
| CC(/C=C/CN(c1cc(C(C)(C)C)cc2c1CCC2(C)C)C(C)C)=C\C(=O)O | 2.42 |
| CCCN(C/C=C/C(C)=C/C(=O)O)c1cc2c(cc1C)C(C)(C)CCC2(C)C | 2.35 |
| CC(/C=C/[C@@H]1CCCN1c1ccc2c(c1)C(C)(C)CCC2(C)C)=C\C(=O)O | 2.17 |
| CCN(C/C=C/C(C)=C/C(=O)O)c1cc(C(C)(C)C)cc(C(C)(C)C)c1 | 2.36 |
| CCN(C/C=C/C(C)=C/C(=O)O)c1cc2c(cc1C)C(C)(C)CCC2(C)C | 2.10 |
| CCN(C/C=C/C(C)=C/C(=O)O)c1ccc2c(c1)C(C)(C)CCC2(C)C | 2.11 |
| CC(/C=C/CN(CC1CC1)c1cc(C(C)(C)C)cc2c1CCC2(C)C)=C\C(=O)O | 2.00 |
